// cell viability lookup, one value per entry
# Tested on: Caco-2
# testProtocol: cell viability relative to DMSO; higher = less toxic
# conditionSummary: 72 h; 100 nM
Write it as a number; the unit % goes unstated.

[
  {
    "compound": "CC1OC2(CS1)CN1CCC2CC1 (stereo not drawn)",
    "unitOfMeasure": "%",
    "obsValue": 91.3
  },
  {
    "compound": "C[C@@H]1C[C@H]2[C@@H]3CCC4=CC(=O)C=C[C@]4(C)[C@@]3(F)[C@@H](O)C[C@]2(C)[C@@]1(O)C(=O)COP(=O)(O)O [DEXAMETHASONE SODIUM PHOSPHATE]",
    "unitOfMeasure": "%",
    "obsValue": 99.7
  }
]

Next:
Bench note: what cell viability did `C/C(=N\NC(=N)N)c1cc(NC(=O)CCCCCCCCC(=O)Nc2cc(/C(C)=N/NC(=N)N)cc(/C(C)=N/NC(=N)N)c2)cc(/C(C)=N/NC(=N)N)c1` show?
106

====

// cell viability lookup, one value per entry
# Test system: Vero E6
# testProtocol: cell viability relative to DMSO; higher = less toxic
# conditionSummary: 72 h; 10 nM

// worked examples, cell viability included
[
  {
    "molecule": "COC(=O)c1ccccc1NC(=O)c1ccc(F)cc1 [EXO-1]",
    "testedTarget": "Vero E6",
    "cell viability": "94.6%"
  },
  {
    "molecule": "CCN1CCCC1=O",
    "testedTarget": "Vero E6",
    "cell viability": "103%"
  }
]

Requested read-out cell viability, target or system Vero E6, entry CS(=O)(=O)c1ccc(Cn2c3c(c4cc(F)cc(F)c42)CCCC3CC(=O)O)cc1 (stereo not drawn)
101%

====

// drug sensitivity score lookup, one value per entry
# Test system: Caco-2
# testProtocol: drug sensitivity score (DSS) for viability; higher = more toxic; extreme values may be limits of the assay
# conditionSummary: 72 h
Quick one: just the number, no unit, thanks!

// worked examples, drug sensitivity score included
[
  {
    "smilesRecord": "CCn1c(-c2nonc2N)nc2cnc(Oc3cccc(NC(=O)c4ccc(OCCN5CCOCC5)cc4)c3)cc21",
    "drug sensitivity score": 1.8
  },
  {
    "smilesRecord": "O=c1cc(-c2ccc(O)cc2)oc2cc(O)cc(O)c12",
    "drug sensitivity score": 0
  },
  {
    "smilesRecord": "C=C1/C(=C\\C=C2/CCC[C@]3(C)[C@@H]([C@H](C)OCCC(C)(C)O)CC[C@@H]23)C[C@@H](O)C[C@@H]1O",
    "drug sensitivity score": 0
  }
]

Next:
Bench note: what drug sensitivity score did `CCn1nc(C2CCN(C(=O)CCO)CC2)nc1-c1cnc(N)c(-c2nnc(C(C)(C)C)o2)n1` show?
3.2

====

# Tested on: U2OS
# testProtocol: cell viability relative to DMSO; higher = less toxic
# conditionSummary: 72 h; 10000 nM
readoutLabel: cell viability (%)
Write it as a number; the unit % goes unstated.

[
  {
    "smilesRecord": "O=C(O)CNC(=O)c1c(O)c2ccccc2n(Cc2ccccc2)c1=O",
    "obsValue": 95.6
  },
  {
    "smilesRecord": "COC(=O)N[C@H](C(=O)N1CCC[C@H]1c1nc(-c2ccc3c(c2)O[C@@H](c2ccccc2)n2c-3cc3cc(-c4c[nH]c([C@@H]5CCCN5C(=O)[C@@H](NC(=O)OC)C(C)C)n4)ccc32)c[nH]1)C(C)C",
    "obsValue": 99.7
  },
  {
    "smilesRecord": "COc1cc(Br)c(S(=O)(=O)Nc2ccc(Cl)c(O[C@@H]3CCN(C)C3)c2)cc1OC",
    "obsValue": 95
  }
]

Bench note: what cell viability did `O=c1cccc2n1C[C@@H]1CNC[C@H]2C1` show?
102
